Overview of recorded apparent Kd (screen) for various binders
target-entity: T1, TNFR1 (Homo sapiens, UniProt P19438)
T1 chain: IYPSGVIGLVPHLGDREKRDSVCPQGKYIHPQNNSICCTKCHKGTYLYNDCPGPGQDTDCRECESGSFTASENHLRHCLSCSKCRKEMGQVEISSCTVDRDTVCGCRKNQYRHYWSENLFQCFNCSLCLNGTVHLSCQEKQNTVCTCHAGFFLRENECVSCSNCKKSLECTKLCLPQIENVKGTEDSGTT
assay-overview: yeast display SC50
endpoint-name: apparent Kd (screen) (nM)

- binder: "L26P (designed binder) MTLQELLREEALRRAEAEAFRYALEPLAEKFPEQKEYLLDLAEEIESQIRSLSGVDVEDVRKFLDKEWAWVKELLAEHPAELAEVEAARAARLAELRAEVEAKVAA"
  endpoint-name: "apparent Kd (screen)"
  experimental-result: 13.8
- binder: "E25A (designed binder) MTLQELLREEALRRAEAEAFRYALALLAEKFPEQKEYLLDLAEEIESQIRSLSGVDVEDVRKFLDKEWAWVKELLAEHPAELAEVEAARAARLAELRAEVEAKVAA"
  endpoint-name: "apparent Kd (screen)"
  experimental-result: 0.405
